All figures here come from patent US5739127A.

- Tested system: apamine binding sites (apamine-sensitive potassium channels), bovine cerebral membrane
- Measurement description: Binding of 125I-apamine to bovine cerebral membrane
- Stated conditions: 30 pM 125I-apamine, bovine (calf) hippocampus membranes, 200 μg membrane protein, 60 min on ice
Recorded endpoint: pKi
Keep in mind that pKi stands for -log10 of concentration in molar terms.

Query: pKi; subject: NC(=O)C1CCCN(c2nc(N3CCC(CNc4nc(N5CCCC5)nc5ccccc45)CC3)nc3ccccc23)C1 (stereo not shown) [Example 5] 6.82
